Listed here are compounds together with their documented TGI.
- Tested on: NCI-H226 lung
- assay.summary: NCI tumour cell line growth inhibition, 48 h

N#CC(c1ccccc1)N(CCCCCCN(C(=O)c1ccccc1)C(C#N)c1ccccc1)C(=O)c1ccccc1 (centres undefined) : > 100 µM
COc1ccc(C2SC(N)=Nc3c2c(C)nn3C(=O)c2ccccc2O)cc1OC (centres undefined) : > 10 µM
O=C(Nc1ccccc1)c1cc(S(=O)(=O)Nc2n[nH]c(=O)n2-c2ccccc2)c(S)cc1Cl : > 100 µM

As a next step, examine the compound that follows.
Q: Would you mind telling me what TGI value was observed for CCOC(=O)c1cc(C2CCN(c3ccccc3)C2=O)c(/C(O)=C/C(C)=O)[nH]1 (centres undefined) ?
Result: > 100 µM

====

- System: HOP-92 NSCLC
- assay.summary: NCI tumour cell line growth inhibition, 48 h
Listed here are compounds together with their documented TGI.

# count of solved cases: 8
CC(C)(C)C1=CC(=C(P(=O)(O)O)P(=O)(O)O)C=C(C(C)(C)C)C1=O : > 50 µM
CC[C@]12C=CCN3CC[C@@]4(c5cc(N=O)c(OC)cc5N(C)[C@H]4[C@@](O)(C(=O)OC)[C@@H]1OC(C)=O)[C@@H]32 : > 100 µM
C=CCC1(CN(C)C)CC/C(=C\c2ccc(OC)cc2)C1=O (centres undefined) : > 100 µM
CCOC(=O)c1cnc(N(C)C)nc1SC(=N)N : > 100 µM
O=C(CCC(=O)Nc1ccc(Cl)c(Cl)c1)Cc1nc2ccccc2o1 : > 100 µM
O=c1c2c(nc3n1CCS3)[nH]c1cc([N+](=O)[O-])ccc12 : > 100 µM
N#C/C(=C\c1cc(O)cc(O)c1)C(N)=O : > 100 µM
Cc1c(C)c2ccc(OCC(O)COC(C)C)c(C)c2oc1=O (centres undefined) : > 100 µM

As a next step, examine the compound that follows.
Q: TGI of C=C(C)[C@H]1CC[C@@]2(C)C(C1)[C@H](C)CC[C@@H]2O (some centres undefined) on HOP-92 NSCLC?
Result: > 100 µM

====

Listed here are compounds together with their documented TGI.
- Test system: MALME-3M melanoma
- assay.summary: NCI tumour cell line growth inhibition, 48 h

# count of solved cases: 3
O=C(O)CCNCC(=O)O : > 100 µM
O=C(O)c1cc(-c2ccc3cc4c(cc3c2)OCO4)nc2ccccc12 : > 100 µM
O=c1ccc2ccc(OP(=O)(O)O)cc2o1 : > 100 µM

As a next step, examine the compound that follows.
Q: Would you mind telling me what TGI value was observed for "O=C(C(=O)c1cc2ccccc2[nH]1)c1cc2ccccc2[nH]1" ?
Result: > 347 µM

====

Listed here are molecules together with their documented TGI.
- System: HCC-2998 colon
- assay.summary: NCI tumour cell line growth inhibition, 48 h

# count of solved cases: 10
COc1cc(/C=C2\C(=O)N(C(=O)Cc3ccccc3)N=C2C)cc(OC)c1OC : > 100 µM
CCOC(=O)Cc1c(C)c2cc(C(=O)c3ccccc3)c(O)cc2oc1=O : > 100 µM
CNC(=O)c1c(C)oc2cc(Oc3ncnc4cc(OC)c(OC)cc34)ccc12 : > 100 µM
OCC1C(OCc2ccccc2)C(OCc2ccccc2)C(OCc2ccccc2)CN1Cc1ccccc1 (stereo not drawn) : > 100 µM
CC[C@]12C=CCN3CC[C@@]4(c5cc(N=O)c(OC)cc5N(C)[C@H]4[C@@](O)(C(=O)OC)[C@@H]1OC(C)=O)[C@@H]32 : > 100 µM
N#CC12C(=O)N3C(=NC(c4ccco4)NC3c3ccco3)C1(C#N)C(c1ccco1)NC1=C2CCCC1 (stereo not drawn) : > 100 µM
NS(=O)(=O)OC[C@H]1C[C@@H](Nc2ccnc3cc(-c4cccc(SC(F)(F)F)c4)nn23)[C@H](O)[C@@H]1O : 0.0442 µM
Nc1nc(Cl)cc(NCC2(O)CCC2)n1 : > 100 µM
COc1cc(/C=C/c2cc(/C=C/c3ccc(O)c(OC)c3)n(C(=O)c3ccc(Cl)cc3)n2)ccc1O : 12.8 µM
Cc1c2ccccc2c(C2C3C(=O)N(c4ccc(Br)cc4)C(=O)C3ON2C(C(N)=O)c2ccccc2)c2ccccc12 (stereo not drawn) : 26.6 µM

Q: Would you mind telling me what TGI value was observed for "COc1ccc(CNc2cnc3cc(N)ccc3n2)cc1" ?
Result: > 100 µM

Q: Would you mind telling me what TGI value was observed for "COC(=O)c1cc2c(=O)n(C)c3ccccc3n2c1C(=O)OC" ?
Result: > 100 µM

Q: Would you mind telling me what TGI value was observed for "CNC(=O)c1ccc(N2C(=S)N(c3cnc(C#N)c(C(F)(F)F)c3)C(=O)C23CCC3)cc1F" ?
Result: > 100 µM
